Form field: T/C (one value per entry).
- Test system: L1210 leukemia ip in BDF1 mice, survival T/C
- Assay Remarks: NCI In Vivo Anticancer Drug Screen. Data for tumor model L1210 Leukemia (intraperitoneal) in B6D2F1 (BDF1) mice
- Condition Set: endpoint: mean survival time; dose: 100.0 mg/kg/injection; schedule: Q01DX001 (ip); vehicle: other; higher = longer survival
Inconclusive results and toxic doses are left out.

Record excerpt, results attached:
# Compound Structure, Test System, T/C
records = [
    ("O=C(O)CN(CCCCN(CC(=O)O)CC(=O)O)CC(=O)O", "L1210 leukemia ip in BDF1 mice, survival T/C", "111 % of control"),
    ("Nn1cnc2c(=S)nc[nH]c21", "L1210 leukemia ip in BDF1 mice, survival T/C", "102 % of control"),
    ("COc1cc(C)c(C(=O)c2ccccc2NS(=O)(=O)c2ccc(C)cc2)cc1OC", "L1210 leukemia ip in BDF1 mice, survival T/C", "95 % of control"),
]

Q: Request the reported T/C associated with O=C1CN=C(c2ccc[nH]2)c2cc(Cl)ccc2N1
Result: 98 % of control

Q: And what about the compound C/C=C/C=N/Nc1ccccc1 ?
Result: 97 % of control

Q: And what about the compound Cc1ccc(N=Cc2ccccc2O)cc1.[Co] ?
Result: 102 % of control

Q: And what about the compound CCCCOC(=O)c1[nH]cnc1/N=N\N(C)C ?
Result: 111 % of control

Q: And what about the compound CCC(CN)(c1ccccc1)c1ccccc1 ?
Result: 104 % of control

Q: And what about the compound Oc1cc(O)c(CN2CCOCC2)c(O)c1CN1CCOCC1 ?
Result: 98 % of control

----------
- System: L1210 leukemia ip in BDF1 mice, survival T/C
- Assay Remarks: NCI In Vivo Anticancer Drug Screen. Data for tumor model L1210 Leukemia (intraperitoneal) in B6D2F1 (BDF1) mice
- Condition Set: endpoint: mean survival time; dose: 80.0 mg/kg/injection; schedule: Q04DX003 (ip); vehicle: Klucel (hydroxypropylcellulose) (HPC); higher = longer survival
Inconclusive results and toxic doses are left out.
Readout: T/C

Record excerpt, results attached:
# Compound Structure, Readout, Result
records = [
    ("CS(=O)(=O)OCCN(CCOS(C)(=O)=O)c1ccc(C=Nc2cc(Br)c(O)c(Br)c2)cc1", "T/C", "96 % of control"),
    ("[N-]=[N+]=C1C(=O)NN=C1c1ccccc1", "T/C", "97 % of control"),
    ("O=C(CCBr)NCNC(=O)CCBr", "T/C", "109 % of control"),
]

Q: Request the reported T/C associated with ClCCOCOCCCl
Result: 101 % of control

----------
- System: L1210 leukemia ip in BDF1 mice, survival T/C
- Assay Remarks: NCI In Vivo Anticancer Drug Screen. Data for tumor model L1210 Leukemia (intraperitoneal) in B6D2F1 (BDF1) mice
- Condition Set: endpoint: mean survival time; dose: 400.0 mg/kg/injection; schedule: Q04DX002 (ip); vehicle: Klucel (hydroxypropylcellulose) (HPC); higher = longer survival
Toxic doses and inconclusive results are not listed.
Form field: T/C (one value per entry).

# Molecule, T/C
measured = [
    ("CCn1c2ccccc2c2cc(/C=C\\[N+](=O)[O-])ccc21", "97 % of control"),
]

Q: Request the reported T/C associated with CCCNC(=O)Oc1ccc2ccccc2c1
Result: 100 % of control

Q: And what about the molecule O=C(O)C(Nc1ccc(Nc2ccccc2)cc1)c1ccccc1 (stereo not given) ?
Result: 114 % of control

Q: And what about the molecule CC(c1ccccc1)n1cncc1C(=O)N1CCOCC1 (stereo not given) ?
Result: 123 % of control

Q: And what about the molecule CNC(=S)N/N=C(\C=N\NC(=S)NC)c1ccc(C)cc1 ?
Result: 103 % of control

----------
- System: L1210 leukemia ip in BDF1 mice, survival T/C
- Assay Remarks: NCI In Vivo Anticancer Drug Screen. Data for tumor model L1210 Leukemia (intraperitoneal) in B6D2F1 (BDF1) mice
- Condition Set: endpoint: mean survival time; dose: 400.0 mg/kg/injection; schedule: Q01DX001 (ip); vehicle: carboxymethylcellulose (CMC); higher = longer survival
Toxic doses and inconclusive results are not listed.
Readout: T/C

# Compound, T/C
measured = [
    ("COc1ccc(-c2c([N+](=O)[O-])ccc(Cl)c2[N+](=O)[O-])cc1", "102 % of control"),
    ("CCc1c(CO)cnc(C)c1OP(=O)(O)O", "102 % of control"),
    ("CCOC(=O)Nc1cc(NC(c2ccccc2)c2ccccc2)c(N)c(N)n1", "107 % of control"),
    ("O=C(c1ccccc1)C(c1ccccc1)(c1ccccc1)c1ccccc1", "123 % of control"),
]

Q: Request the reported T/C associated with Cc1cc(-n2cnc3c(Cl)ncnc32)ccc1[N+](=O)[O-]
Result: 112 % of control

Q: And what about the compound [Cl][Sb]([Cl])([c]1ccccc1)([c]1ccccc1)[c]1ccccc1 ?
Result: 93 % of control

Q: And what about the compound Cc1nnc(NS(=O)(=O)c2ccc(N=Nc3c(N)n(C)c(=O)n(C)c3=O)cc2)s1 ?
Result: 89 % of control

Q: And what about the compound NNC(=O)c1n[nH]c(=S)[nH]c1=O ?
Result: 95 % of control

Q: And what about the compound O=C(O)CCNc1ccccc1C(=O)O ?
Result: 100 % of control

Q: And what about the compound CCc1ccc(N=Nc2c(F)c(F)c(NC(C)=O)c(F)c2F)cc1 ?
Result: 91 % of control

Q: And what about the compound O=C(Nc1ccc2c(c1)C(S)c1ccccc1-2)C(F)(F)F (configuration not stated) ?
Result: 95 % of control

Q: And what about the compound CN(C)c1nc2ccccc2o1 ?
Result: 105 % of control

----------
- System: L1210 leukemia ip in BDF1 mice, survival T/C
- Assay Remarks: NCI In Vivo Anticancer Drug Screen. Data for tumor model L1210 Leukemia (intraperitoneal) in B6D2F1 (BDF1) mice
- Condition Set: endpoint: mean survival time; dose: 50.0 mg/kg/injection; schedule: Q01DX001 (ip); vehicle: carboxymethylcellulose (CMC); higher = longer survival
- Description: The antitumor activity of compounds was measured in mice bearing transplantable tumors. Survival or tumor size were measured and the results are expressed as the measurement made in the treated group (T) divided by the measurement made in the vehicle treated control group (C). The tumor model used in this assay is L1210 Leukemia (intraperitoneal) in B6D2F1 (BDF1) mice
Inconclusive results and toxic doses are left out.
Readout: T/C

Record excerpt, results attached:
# Compound Structure, T/C
measured = [
    ("COc1cc(/C=C2\\CCOC2=O)c([N+](=O)[O-])cc1OC", "96 % of control"),
    ("COc1ccccc1CN1CCCN(Cc2ccccc2OC)C1c1cccnc1", "112 % of control"),
    ("O=[N+]([O-])/C=C\\c1cccc(OCc2ccccc2)c1", "101 % of control"),
]

Q: Request the reported T/C associated with CC(=O)Nc1ccc(S(=O)(=O)NN)cc1
Result: 106 % of control

----------
- Tested on: L1210 leukemia ip in BDF1 mice, survival T/C
- Assay Remarks: NCI In Vivo Anticancer Drug Screen. Data for tumor model L1210 Leukemia (intraperitoneal) in B6D2F1 (BDF1) mice
- Condition Set: endpoint: mean survival time; dose: 400.0 mg/kg/injection; schedule: Q01DX009 (ip); vehicle: Klucel (hydroxypropylcellulose) (HPC); higher = longer survival
Toxic doses and inconclusive results are not listed.
Form field: T/C (one value per entry).

# Compound, Test System, Result
data = [
    ("CCCCCCCCCCCCCCCCCSc1ccc2ccccc2c1", "L1210 leukemia ip in BDF1 mice, survival T/C", "95 % of control"),
    ("CSc1ncnc2c1ncn2-n1cccc1", "L1210 leukemia ip in BDF1 mice, survival T/C", "101 % of control"),
    ("Cc1ccc(NC(=O)Nc2cccc(C(F)(F)F)c2)cc1C", "L1210 leukemia ip in BDF1 mice, survival T/C", "91 % of control"),
    ("CCc1ccccc1NC(=O)SCCSC(=O)Nc1ccccc1CC", "L1210 leukemia ip in BDF1 mice, survival T/C", "104 % of control"),
    ("CCCCNS(=O)(=O)c1ccc(OC)c(N)c1", "L1210 leukemia ip in BDF1 mice, survival T/C", "97 % of control"),
    ("Cc1ccc(NC(=O)Oc2ccc(Nc3ccccc3)cc2)cc1", "L1210 leukemia ip in BDF1 mice, survival T/C", "98 % of control"),
    ("COc1ccc(Cl)cc1NC(=O)CC(C)=O", "L1210 leukemia ip in BDF1 mice, survival T/C", "95 % of control"),
    ("O=P(OCCCl)(OCCCl)C(c1ccccc1)(c1ccccc1)c1ccccc1", "L1210 leukemia ip in BDF1 mice, survival T/C", "93 % of control"),
    ("CCN(CCC#N)C(=S)Nc1cccc2ccccc12", "L1210 leukemia ip in BDF1 mice, survival T/C", "104 % of control"),
    ("O=C(Nc1ccc(F)cc1)Nc1cccc(C(=O)O)c1", "L1210 leukemia ip in BDF1 mice, survival T/C", "95 % of control"),
]

Q: Request the reported T/C associated with O=C(/C=C/C(=O)Oc1c(Cl)c(Cl)c(Cl)c(Cl)c1Cl)Oc1c(Cl)c(Cl)c(Cl)c(Cl)c1Cl
Result: 100 % of control

Q: And what about the compound Nc1nc2n(n1)C(=O)C(=O)N2 ?
Result: 96 % of control

Q: And what about the compound Cc1ccc(NC(=O)Oc2ccccc2C(N)=O)cc1NC(=O)Oc1ccccc1C(N)=O ?
Result: 89 % of control

Q: And what about the compound COc1ccc(OC)c(NC(=O)Nc2ccccc2C(F)(F)F)c1 ?
Result: 95 % of control

Q: And what about the compound C/C=C1\CCC2C(=C1C)CC1C2CC=C2CC(OC(C)=O)CCC21C (stereo unspecified) ?
Result: 90 % of control

Q: And what about the compound CCOC1=NCCCCC1OC(C)=O (stereo unspecified) ?
Result: 95 % of control

Q: And what about the compound CCc1ccc(N=C(C)c2c(O)cc(C)oc2=O)cc1 ?
Result: 96 % of control

Just for reference, PubChem BioAssay AID248 is where these values come from.
